Measured target: T1, human immunoglobulin E (hIgE) (human, UniProt P01854-1 1-428)
T1 construct: also called human IgE; Native IgE (Abcam)
T1 sequence (P01854 whole entry): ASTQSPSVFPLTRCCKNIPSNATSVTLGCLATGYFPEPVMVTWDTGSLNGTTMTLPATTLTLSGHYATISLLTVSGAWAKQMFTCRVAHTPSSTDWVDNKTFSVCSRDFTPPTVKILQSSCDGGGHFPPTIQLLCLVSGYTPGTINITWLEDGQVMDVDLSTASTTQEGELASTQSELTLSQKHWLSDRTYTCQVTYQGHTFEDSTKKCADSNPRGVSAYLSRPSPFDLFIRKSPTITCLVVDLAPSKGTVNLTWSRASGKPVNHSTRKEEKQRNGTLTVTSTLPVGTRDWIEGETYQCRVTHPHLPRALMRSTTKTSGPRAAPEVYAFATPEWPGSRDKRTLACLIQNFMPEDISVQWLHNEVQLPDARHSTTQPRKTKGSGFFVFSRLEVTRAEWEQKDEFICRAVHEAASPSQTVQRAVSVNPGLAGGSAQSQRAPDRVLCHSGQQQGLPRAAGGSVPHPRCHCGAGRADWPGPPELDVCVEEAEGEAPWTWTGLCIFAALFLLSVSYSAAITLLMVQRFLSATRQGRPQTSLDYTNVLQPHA
Experiment notes: SPR competition, hIgE over hFcεRIα chip, pH 7.4
Quantity measured: IC50 (µg/mL)
State the answer as a number, implicitly in µg/mL.

Solved entries:
18B9_VH_S35H_VL_Y49H (antibody, V domains shown) VH: QVQLVESGGGLVQPGGSLRLSCAASGFTFSSYVMHWVRQAPGKGLEWVSSIYSDGSHTYYADSVKGRFTISRDNAKNTLYLQMNSLKSEDTAVYYCAKNLEHYSGSYYYTDPRYDYWGQGTQVTVSS VL: SSALTQPSALSVTLGQTAKITCQGGSLGSSYVHWYQQKPGQAPVLVIHDGDSRPSGIPERFSGSSSGGTATLTISGAQAEDEDDYYCQSADSSGNAVFGGGTHLTVL    26.3
VH3D1_S35H (antibody, V domains shown) VH: QLQVVESGGGLVQPGGSLRLSCAASGFTFSSYYMHWVRQAPGKGLEWVSSIYSDGRGSKTFYADSVKGRFTISRDNAKNTLYLQMNSLKSEDTAVYFCAKDLLVAARGSMDYWGQGTQVTVSS VL: NFMLTQPSAVSVSLEQTARITCQGGTLGSYGAHWYQQKPGQAPVLLIYGDNSRPSGIPERFSGTRSGGTATLTISGAQAEDEADYYCQSFDYSGNAVFGGGTHLTVL    15.5

Could you now consider this next binder?
Q: Kindly indicate its recorded IC50. Item: VH18B9_S35H (antibody, V domains shown) VH: QVQLVESGGGLVQPGGSLRLSCAASGFTFSSYVMHWVRQAPGKGLEWVSSIYSDGSHTYYADSVKGRFTISRDNAKNTLYLQMNSLKSEDTAVYYCAKNLEHYSGSYYYTDPRYDYWGQGTQVTVSS VL: SSALTQPSALSVTLGQTAKITCQGGSLGSSYVHWYQQKPGQAPVLVIYDGDSRPSGIPERFSGSSSGGTATLTISGAQAEDEDDYYCQSADSSGNAVFGGGTHLTVL
A: 21.7
